assayedTarget: T1, human GITR (amino acids M1-V241, NCBI Accession #NP_004186.1) expressed on cells (human, UniProt Q9Y5U5 26-241)
T1 sequence: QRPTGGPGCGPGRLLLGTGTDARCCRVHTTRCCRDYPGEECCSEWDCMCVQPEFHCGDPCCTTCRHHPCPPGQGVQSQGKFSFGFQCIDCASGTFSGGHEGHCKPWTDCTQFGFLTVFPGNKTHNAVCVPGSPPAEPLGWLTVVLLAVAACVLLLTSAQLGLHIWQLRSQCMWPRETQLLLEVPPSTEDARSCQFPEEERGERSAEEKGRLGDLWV
protocolDescription: cell-based or functional assay
measurementType: % Activation, NF-kB-Luc, non-anchored

binder	% Activation, NF-kB-Luc, non-anchored
H4H14521P (antibody, human IgG4, V domains shown, human IgG4 (H4H)) VH: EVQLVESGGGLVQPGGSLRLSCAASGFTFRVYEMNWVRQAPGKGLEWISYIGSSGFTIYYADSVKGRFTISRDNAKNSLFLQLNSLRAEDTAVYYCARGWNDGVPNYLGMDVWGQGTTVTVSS VL: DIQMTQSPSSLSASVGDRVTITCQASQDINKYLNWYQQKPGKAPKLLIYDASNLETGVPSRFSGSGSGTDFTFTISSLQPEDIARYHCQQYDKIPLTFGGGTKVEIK	50%

Kindly consider the entry below.
Measured % Activation, NF-kB-Luc, non-anchored, H4H14508P (antibody, human IgG4, V domains shown, human IgG4 (H4H)) VH: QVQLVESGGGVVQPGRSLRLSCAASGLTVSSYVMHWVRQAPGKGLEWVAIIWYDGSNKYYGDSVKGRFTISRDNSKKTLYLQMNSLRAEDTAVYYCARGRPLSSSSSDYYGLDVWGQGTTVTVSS VL: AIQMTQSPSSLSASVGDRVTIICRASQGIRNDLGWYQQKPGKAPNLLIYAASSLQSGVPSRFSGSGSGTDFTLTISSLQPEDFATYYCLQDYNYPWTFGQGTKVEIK : 30%
